The reported measurements were obtained from patent US20100303808A1.

System name: T1, human CD20 (human, UniProt P11836 1-297)
T1 construct: whole, on cells; also called human B-lymphocyte-restricted differentiation antigen; Bp35
T1 sequence (looked up): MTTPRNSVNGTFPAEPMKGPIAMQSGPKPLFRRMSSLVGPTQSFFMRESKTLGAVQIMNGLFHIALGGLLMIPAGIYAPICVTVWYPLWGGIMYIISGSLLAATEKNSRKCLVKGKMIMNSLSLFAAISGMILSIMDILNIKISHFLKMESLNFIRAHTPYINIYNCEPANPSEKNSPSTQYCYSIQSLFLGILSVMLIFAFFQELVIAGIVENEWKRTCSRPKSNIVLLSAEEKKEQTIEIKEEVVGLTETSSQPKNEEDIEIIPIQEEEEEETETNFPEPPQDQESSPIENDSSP
Procedure text: dissociation of DyLight 488-labelled antibody from Raji cells at 37 C in excess unlabelled antibody, FACS MFI; Study 2
Design: unit not given here
For each record, write down the corresponding Half-life (dissociation from Raji cells).
Answers are plain numbers.

Look over these answered cases.
* 1F5RHA x 1F5RKF12 (antibody, human IgG1, kappa, V domains shown, also called RHA x RKF12; 1F5RKF12 x 1F5RHA) VH: QVQLVQSGAEVKKPGASVKVSCKASGYTFTSYNMHWVRQAPGQRLEWIGAIYPGNGDTSYNQKFKGRVTVTRDTSANTAYMELSSLKSEDTAVYYCARSHYGSNYVDYFDYWGQGTLVTVSS VL: EIVLTQSPGTLSLSPGERATLSCRASSSLSFMHWYQQKPGQAPRPLIYATSNLASGIPARFSGSGSGTDFTLTISRLEPEDFAVYFCHQWSSNPLTFGQGTKVELKR | 65
* 1F5RHA x 1F5RKG11 (antibody, human IgG1, kappa, V domains shown, also called RHA x RKG11; 1F5RKG11 x 1F5RHA) VH: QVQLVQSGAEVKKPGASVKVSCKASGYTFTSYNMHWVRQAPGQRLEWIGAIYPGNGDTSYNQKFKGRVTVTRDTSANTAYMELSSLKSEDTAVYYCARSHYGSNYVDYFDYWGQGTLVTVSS VL: EIVLTQSPSSLSASVGDRVTITCRASSSLSFMHWYQQKPGKAPKPLIYATSNLASGVPSRFSGSGSGTDFTLTISSLQPEDFATYYCHQWSSNPLTFGGGTKVEIKR | 63
* chimeric antibody c1F5 (c1F5VH x c1F5VK) (antibody, human IgG1, kappa, V domains shown, Mouse 1F5 variable regions on human gamma1 / kappa constant regions; also called chimeric 1F5) VH: QVQLRQPGAELVKPGASVKMSCKASGYTFTSYNMHWVKQTPGQGLEWIGAIYPGNGDTSYNQKFKGKATLTADKSSSTAYMQLSSLTSEDSAVYYCARSHYGSNYVDYFDYWGQGTLVTVST VL: QIVLSQSPAILSASPGEKVTMTCRASSSLSFMHWYQQKPGSSPKPWIYATSNLASGVPARFSGSGSGTSYSLTISRVEAEDAATYFCHQWSSNPLTFGAGTKVEIKR | 57
* 1F5RHA x 1F5RKB12 (antibody, human IgG1, kappa, V domains shown, also called RHA x RKB12; Variant F) VH: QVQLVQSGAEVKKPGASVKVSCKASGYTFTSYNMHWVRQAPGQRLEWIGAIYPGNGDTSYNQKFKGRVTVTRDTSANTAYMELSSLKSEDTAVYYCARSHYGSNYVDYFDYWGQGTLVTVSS VL: EIVLTQSPGTLSLSPGERATLSCRASSSLSFMHWYQQKPGQAPRPWIYATSNLASGIPARFSGSGSGTDYTLTISRLEPEDFAVYFCHQWSSNPLTFGQGTKVELKR | 64
* rituximab (antibody, V domains shown) VH: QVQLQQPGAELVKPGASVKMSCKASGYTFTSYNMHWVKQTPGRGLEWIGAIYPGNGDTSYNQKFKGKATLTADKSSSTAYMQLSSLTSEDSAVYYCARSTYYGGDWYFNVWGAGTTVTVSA VL: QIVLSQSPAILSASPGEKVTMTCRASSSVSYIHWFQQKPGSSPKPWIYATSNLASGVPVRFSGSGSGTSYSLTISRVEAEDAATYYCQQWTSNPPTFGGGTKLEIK | 24

Okay, next one:
Ask | // returns reported Half-life (dissociation from Raji cells) for input 1F5RHA x 1F5RKB11 (antibody, human IgG1, kappa, V domains shown, also called RHA x RKB11; Variant D) VH: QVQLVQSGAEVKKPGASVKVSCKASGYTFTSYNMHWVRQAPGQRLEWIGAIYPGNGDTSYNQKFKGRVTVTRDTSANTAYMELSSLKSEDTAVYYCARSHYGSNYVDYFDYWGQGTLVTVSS VL: EIVLTQSPSSLSASVGDRVTITCRASSSLSFMHWYQQKPGKAPKPWIYATSNLASGVPSRFSGSGSGTDYTLTISSLQPEDFATYFCHQWSSNPLTFGGGTKVEIKR
Reply | 59
